Reference source: ChEMBL document CHEMBL1201862

Target: UniProt Q13285
Sequence (Q13285 whole entry): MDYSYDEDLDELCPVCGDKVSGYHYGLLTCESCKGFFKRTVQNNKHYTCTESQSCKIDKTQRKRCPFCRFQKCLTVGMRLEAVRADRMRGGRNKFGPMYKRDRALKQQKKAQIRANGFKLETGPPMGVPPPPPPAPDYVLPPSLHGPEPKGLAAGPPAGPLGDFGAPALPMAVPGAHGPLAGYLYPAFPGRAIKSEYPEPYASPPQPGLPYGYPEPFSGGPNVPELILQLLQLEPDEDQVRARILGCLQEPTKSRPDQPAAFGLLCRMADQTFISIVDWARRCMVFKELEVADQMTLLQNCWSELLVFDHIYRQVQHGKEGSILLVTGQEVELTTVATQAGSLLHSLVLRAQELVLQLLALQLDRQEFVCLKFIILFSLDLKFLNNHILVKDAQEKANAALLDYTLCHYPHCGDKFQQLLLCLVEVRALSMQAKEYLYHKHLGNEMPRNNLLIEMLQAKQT
Assay: Counterscreen for inverse agonists of the liver receptor homolog-1 (LRH-1; NR5A2): Luminescence-based cell-based high throughput dose response assay to identify inverse agonists of the Steroidogenic Factor 1 Nuclear Receptor (SF1; NR5A1).
Type: functional
The source made the active and inactive calls.
Outcome codes: true (1) for active, false (0) for inactive

molecule	labelClass
Cc1no[n+]([O-])c1COc1ccccc1/C=N/n1nnnc1N	false (0)
COCCNc1ccc([N+](=O)[O-])cc1C(=O)NC1CCCc2ccccc21 (centres undefined)	true (1)
CC1CCCN(c2cc(N(C)CCO)c([N+](=O)[O-])c3nonc23)C1 (centres undefined)	true (1)
CCOc1ccc(NC(=O)CSc2nncc(O)n2)cc1	true (1)

* * *

Biological target: Microphthalmia-associated transcription factor (Homo sapiens)
Sequence (O75030 whole entry): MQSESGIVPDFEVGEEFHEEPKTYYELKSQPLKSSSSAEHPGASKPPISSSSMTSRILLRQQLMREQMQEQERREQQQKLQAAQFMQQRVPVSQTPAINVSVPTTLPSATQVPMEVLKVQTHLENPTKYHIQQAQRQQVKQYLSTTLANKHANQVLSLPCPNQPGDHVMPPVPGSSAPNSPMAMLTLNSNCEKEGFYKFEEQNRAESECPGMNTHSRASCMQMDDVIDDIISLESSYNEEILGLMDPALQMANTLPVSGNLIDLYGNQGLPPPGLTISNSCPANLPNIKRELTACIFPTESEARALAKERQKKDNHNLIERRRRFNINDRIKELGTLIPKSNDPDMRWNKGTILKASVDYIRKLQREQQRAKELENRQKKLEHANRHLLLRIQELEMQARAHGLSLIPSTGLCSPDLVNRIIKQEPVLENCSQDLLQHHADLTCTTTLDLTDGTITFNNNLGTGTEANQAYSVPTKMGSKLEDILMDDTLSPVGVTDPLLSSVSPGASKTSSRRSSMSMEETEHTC
Experiment: TRPM1 promoter luciferase signal decrease, dose response, MITF inhibitor project, cell-based, SK-MEL-5, cherry-picked, set 3 (AID 493073);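 further: SK-MEL-5 melanoma cells with luciferase driven by the MITF target TRPM1 promoter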
Type: functional
Active and inactive are the calls of the source.

smilesInput	testTarget	AC50
CN(C)CCCN(C(=O)c1ccc(Cl)s1)c1nc2cc3c(cc2s1)OCO3	Microphthalmia-associated transcription factor (Homo sapiens)	22.9 µM (active)
C/C(=N\NC(=O)C(c1ccccc1)c1ccccc1)c1ccccn1	Microphthalmia-associated transcription factor (Homo sapiens)	5.96 µM (active)
Cc1ccc(C(=O)Nc2cnc3ccccc3c2)cc1	Microphthalmia-associated transcription factor (Homo sapiens)	1.15 µM (active)
COc1ccc(C(=O)Nc2ccc(C)cn2)c(OC)c1	Microphthalmia-associated transcription factor (Homo sapiens)	3.7 µM (active)
CC(C)(C)c1ccc(-c2c[n+](-c3ccc(Br)cc3)c3n2CCCS3)cc1	Microphthalmia-associated transcription factor (Homo sapiens)	3.2 µM (active)

* * *

The following compounds are listed with their measured AC50 values.
Biological target: Cytochrome P450 2C19 (Homo sapiens, UniProt P33261)
Sequence (P33261 whole entry): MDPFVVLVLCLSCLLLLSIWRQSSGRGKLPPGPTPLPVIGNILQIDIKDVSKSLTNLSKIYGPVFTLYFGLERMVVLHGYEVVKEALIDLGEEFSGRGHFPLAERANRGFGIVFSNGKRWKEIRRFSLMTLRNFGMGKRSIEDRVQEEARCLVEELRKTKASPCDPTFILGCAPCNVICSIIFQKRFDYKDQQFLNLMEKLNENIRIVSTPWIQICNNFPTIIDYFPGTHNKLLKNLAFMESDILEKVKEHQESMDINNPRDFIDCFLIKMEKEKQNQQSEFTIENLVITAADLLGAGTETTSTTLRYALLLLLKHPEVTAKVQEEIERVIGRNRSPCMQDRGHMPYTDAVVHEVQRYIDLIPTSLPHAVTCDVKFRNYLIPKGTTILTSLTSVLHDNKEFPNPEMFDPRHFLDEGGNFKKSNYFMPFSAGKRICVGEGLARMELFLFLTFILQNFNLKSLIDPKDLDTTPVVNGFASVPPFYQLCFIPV
Test: Cytochrome panel assay with activity outcomes. Panel member name: p450-cyp2c19 Compounds with AC50 equal or less than 10 uM are considered active
Format: functional
Settings: read-out: AC50

compound	AC50
O=c1c(-c2cccc(Cl)c2)nc2cncnc2n1Cc1ccccc1	0.0398 µM (inconclusive)
O=C(Nc1cc(-c2nc3ccccc3s2)ccc1Cl)c1ccc2c(c1)OCO2	3.55 µM (inconclusive)
CN1CCc2nc3ccc(F)cc3c(C(N)=O)c2C1	39.8 µM (inconclusive)
CCOc1c2ccc(C(=O)NCc3ccc(OC(F)(F)F)cc3)cc2nn1C	20 µM (inconclusive)
Cc1ccc(/C=C/c2nnc(-c3cccs3)o2)cc1	25.1 µM (inconclusive)
C=CCNC(=S)N/N=C/c1ccc(-c2cc(Cl)ccc2Cl)o1	3.16 µM (inconclusive)
CCOC(=O)c1cncc(C(=O)O)c1	31.6 µM (inconclusive)
CC1Cc2ccccc2N1Cc1nc(O)c2ccc(C(F)(F)F)cc2n1 (stereo not given)	0.0282 µM (inconclusive)
Cn1c(=O)c(-c2ccccc2)nc2cnc(N3CCNCC3)nc21	39.8 µM (inconclusive)
CCCc1cc2c(n1CCO)C(C)C1CN(C(=O)c3ccccc3)C(C)(C(=O)OC)C21 (stereo not given)	3.16 µM (inconclusive)
COc1ccc(C(=O)N2CCC3(CCCN(C(=O)Nc4cccc(C#N)c4)C3)CC2)cc1	39.8 µM (inconclusive)
COc1ccc(Cl)cc1NC(=O)CN1C(=O)CSC1=O	39.8 µM (inconclusive)
Nc1nc(CSc2nnnn2-c2ccc(Cl)cc2)nc(N2CCOCC2)n1	1 µM (inconclusive)
COc1ccccc1OCCCCCc1c(C)n[nH]c1C	1.58 µM (inconclusive)
CCOc1ccc(NC(=O)Cn2nnc(C(=O)NCc3ccccc3OC)c2N)cc1	5.01 µM (inconclusive)
CCOc1ccc(OCC)c(NC(=O)C2CCCN(S(=O)(=O)c3cccs3)C2)c1 (stereo not given)	2.82 µM (inconclusive)
O[C@@H](COc1cccc2ccccc12)CN1CCOCC1	0.0501 µM (inconclusive)
CCN(CC)C(=O)CSc1nnc(CNc2ccc(F)cc2)o1	22.4 µM (inconclusive)
Cc1ccc(C(=O)N/N=C/c2nc3ccccc3n2C)cc1	15.8 µM (inconclusive)
CC(=O)[C@@H]1CC[C@H]2[C@H]3CC[C@H]4C[C@@H](O)CC[C@]4(C)[C@@H]3CC[C@]12C	20 µM (inconclusive)

* * *

Test: cytotoxicity toward NIH3T3 fibroblasts, dose response, counter-screen, cell-based, ATP luminescence, mouse fibroblasts (AID 2010);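 further: cells exposed to compound for about 90 hours before reading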
Type: functional
Active and inactive are the calls of the source.
The following molecules are listed with their measured EC50 values.

molecule	EC50
COc1ccc(-c2nn(C)c(=O)c3ccccc23)cc1NC(=O)Cn1nc(C)c2ccccc2c1=O	> 60 µM (not active)
Cc1[nH]c2ccccc2c1CN1CCN(c2ccccn2)CC1	> 60 µM (not active)
Cc1nc(N=C(N)NS(=O)(=O)c2ccc([N+](=O)[O-])cc2)nc2ccccc12	24.6 µM (active)
Nc1ccc(C(=O)N/N=C\c2cc(N=Nc3cccc4ccccc34)ccc2O)cc1	7.41 µM (active)
CN(C)c1ccc(-c2n(C)c3ccccc3[n+]2C)cc1	18.1 µM (active)
O=C(C1=C[C@H](c2csc3ccccc23)C[C@H](OCc2ccc(CO)cc2)O1)N1CCN(Cc2ccc3c(c2)OCO3)CC1	> 60 µM (not active)
CCN(CC)C(=O)C1CCCN(Cc2ccc(N(C)C)cc2)C1 (stereo not given)	> 60 µM (not active)
O=C(CN1CCN(S(=O)(=O)c2ccc(Br)cc2)CC1)N/N=C/c1ccc(Br)s1	> 60 µM (not active)
Cc1ccc(/C=N/Nc2ccnc3cc(Cl)ccc23)c(C)c1	> 60 µM (not active)
CN(C)CCCN(C(=O)c1cc2cc([N+](=O)[O-])ccc2s1)c1nc2cc3c(cc2s1)OCCO3	6.94 µM (active)

* * *

The following molecules are listed with their measured IC50 values.
Biological target: Polyadenylate-binding protein 1 (Homo sapiens, UniProt P11940)
Sequence (P11940 whole entry): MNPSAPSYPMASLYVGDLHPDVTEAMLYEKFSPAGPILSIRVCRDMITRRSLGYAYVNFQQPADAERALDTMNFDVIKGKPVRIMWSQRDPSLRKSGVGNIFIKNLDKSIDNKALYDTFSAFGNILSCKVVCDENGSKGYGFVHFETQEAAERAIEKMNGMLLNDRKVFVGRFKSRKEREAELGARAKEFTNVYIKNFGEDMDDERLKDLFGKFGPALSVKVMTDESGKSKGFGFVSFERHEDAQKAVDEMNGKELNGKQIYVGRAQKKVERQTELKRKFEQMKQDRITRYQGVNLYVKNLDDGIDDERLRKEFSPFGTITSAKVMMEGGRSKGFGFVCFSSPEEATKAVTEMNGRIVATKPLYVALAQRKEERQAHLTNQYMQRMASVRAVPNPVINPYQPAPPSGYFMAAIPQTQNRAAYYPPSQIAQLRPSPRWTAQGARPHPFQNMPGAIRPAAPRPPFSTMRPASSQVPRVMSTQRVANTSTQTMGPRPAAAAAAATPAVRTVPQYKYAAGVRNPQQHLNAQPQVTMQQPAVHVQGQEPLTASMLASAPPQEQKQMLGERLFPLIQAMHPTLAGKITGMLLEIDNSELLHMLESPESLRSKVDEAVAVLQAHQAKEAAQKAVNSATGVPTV
Test: PABP1 MLLE–PAM2 binding inhibitor potency, dose response, biochemical, fluorescence polarization, FITC-PAM2 peptide (AID 602259)
Format: functional
Conditions: read-out: IC50_Mean
Active and inactive are the calls of the source.

molecule	IC50
COc1cc(NC(C)CCCNC(C)C)c2ncccc2c1OC (stereo unspecified)	49.3 µM (inactive)
Cc1ccc(N2C(S)=NC3c4cc(Cl)ccc4OC2(C)C3C(=O)N(C)C)cc1 (stereo unspecified)	> 66 µM (inactive)
CCc1ccc(OS(=O)(=O)c2cn(C)c(=O)n(C)c2=O)cc1	> 66 µM (inactive)
Nc1cc(Nc2ccc(Br)cc2)nc(N)n1	55.4 µM (inactive)
O=C(O)CCCN1C(=O)C(O)=C(C(=O)c2ccc(Cl)cc2)C1c1ccccc1 (stereo unspecified)	> 66 µM (inactive)
CN(CCC(=O)c1ccccc1)CCC(=O)c1ccccc1	> 66 µM (inactive)

* * *

Target: Zinc finger protein mex-5 (Caenorhabditis elegans, UniProt Q9XUB2)
Sequence (Q9XUB2 whole entry): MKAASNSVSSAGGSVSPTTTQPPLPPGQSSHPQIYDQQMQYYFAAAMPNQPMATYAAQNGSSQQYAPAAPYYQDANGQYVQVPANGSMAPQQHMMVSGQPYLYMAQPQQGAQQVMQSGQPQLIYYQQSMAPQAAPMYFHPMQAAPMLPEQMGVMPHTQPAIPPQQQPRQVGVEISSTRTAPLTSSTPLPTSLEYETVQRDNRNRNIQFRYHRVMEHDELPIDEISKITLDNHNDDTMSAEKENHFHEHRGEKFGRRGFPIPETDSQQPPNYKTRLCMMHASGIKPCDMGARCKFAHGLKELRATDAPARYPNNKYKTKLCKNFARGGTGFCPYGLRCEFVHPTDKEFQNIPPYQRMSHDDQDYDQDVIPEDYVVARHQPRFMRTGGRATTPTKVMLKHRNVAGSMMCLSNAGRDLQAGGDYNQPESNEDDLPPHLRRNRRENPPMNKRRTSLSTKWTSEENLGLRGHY
Assay: MEX-5/TCR-2 RNA interaction inhibitors, dose response, biochemical, C. elegans, fluorescence polarization (AID 1960)
Calls of active or inactive are those of the source.

compound	EC50
COc1ccc(-c2c[nH]nc2-c2ccc(OCC(=O)NN)cc2O)cc1OC	2.07 µM (active)
O=C(/C=C/c1ccc(OCCCF)cc1)Nc1ccnc(-c2cccnc2)n1	20.6 µM (active)
Oc1ccc(C[C@H]2NCCc3cc(O)c(O)cc32)cc1O	5.43 µM (active)
CC1=C(C#N)C(=O)NC(=O)/C1=C\c1ccc(-c2ccc(C)cc2[N+](=O)[O-])o1	21.8 µM (active)
CCCCCCCCOc1ccc(C2OC34CCCCC3C(C#N)(C#N)C2(C#N)C(=N)O4)cc1 (centres undefined)	11.8 µM (active)
Cc1cc(C)c[n+](-c2[n-]c(=O)sc2C=NN=C(S)Nc2ccccc2)c1	9.02 µM (inconclusive)
COC1(OC)N=C(N)C2(C#N)C(c3ccc4c(c3)OCO4)C12C#N (centres undefined)	64.3 µM (active)
O=C1NC(=O)N(CC2CCCO2)C(=O)/C1=C/c1c[nH]c2ccccc12 (centres undefined)	> 300 µM (not active)
Cc1cccc(-c2c3c(=O)n(C)c(=O)n(C)c3c3cccnn23)c1	87.6 µM (active)
COc1ccc(N/C(=C(/C(Cl)=C(Cl)Cl)[N+](=O)[O-])n2nnc3ccccc32)cc1	49.1 µM (inconclusive)
CCCSc1nnc(N2C(=O)C(O)=C(C(=O)c3ccco3)C2c2ccccc2F)s1 (centres undefined)	> 300 µM (not active)
Cc1cc(C(=O)O)ccc1-n1c(C)cc(/C=C2\SC(=O)NC2=O)c1C	> 300 µM (not active)
CCOCCCn1/c(=N/C(C)=O)c(C#N)cc2c(=O)n3ccccc3nc21	> 300 µM (not active)
CCn1cc(C=C2C(=O)NC(=O)NC2=O)c2ccccc21	> 300 µM (inconclusive)
